Where these numbers come from: patent US10940139B2

Documented inhibition at 20 µM across a set of molecules
- tested target: KRas G12D/Q61H double mutant (Homo sapiens (Human), UniProt P01116, G12D/Q61H)
- Sequence (P01116-2 other isoform, or with tags, fused parts or gaps G12D/Q61H): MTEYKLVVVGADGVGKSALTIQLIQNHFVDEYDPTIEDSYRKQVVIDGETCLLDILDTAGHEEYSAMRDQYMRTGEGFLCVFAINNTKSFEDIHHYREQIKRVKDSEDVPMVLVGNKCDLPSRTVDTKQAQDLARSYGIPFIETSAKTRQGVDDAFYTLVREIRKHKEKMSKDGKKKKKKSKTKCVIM
- assay name: Ras GTP binding domain inhibition assay (labeled GTP)
- measurement parameters: 20 μM compound; KRas G12D/Q61H double mutant; read-out: % Inhibition at 20 μM of K-Ras mutant and wild-type protein, KRas G12D Q61H

| molecule | inhibition at 20 µM |
| --- | --- |
| CCn1c(SCCCc2nc3ccccc3o2)nc2ccsc2c1=O | 1 to 25% |
| CCc1nc2ccc(C(=O)Nc3ccccc3C(=O)N3CC(C)OC(C)C3)cc2nc1CC (centres unmarked) | 25 to 50% |
| CCOc1ccc(Oc2ccc(C(F)(F)F)cc2NC(=O)CC(NC(C)=O)c2ccccc2)cc1 (centres unmarked) | 1 to 25% |
| Oc1nc(-c2ccccn2)nc2c(-c3cncc(F)c3)csc12 [drawing 3464] | 1 to 25% |
| OCC1(c2ccc(-c3nc(-c4ccccn4)nc(O)c3Oc3ccccc3)cc2)CC1 [drawing 3534] | 51 to 75% |
| CC(C)c1csc2c(O)nc(-c3ccccn3)nc12 [drawing 3487] | 51 to 75% |
| Cc1nc(CN(C)CC23CC4CC(CC(C4)C2)C3)oc1C | 1 to 25% |
| Cc1cncc(-c2csc3c(O)nc(-c4ccccn4)nc23)c1 [drawing 3467] | 25 to 50% |
| O=[N+]([O-])c1ccc(O)c2ncccc12 | 25 to 50% |
| CCOC(COCCNC(=O)c1ccsc1NC(=O)c1ccc(C(C)C)cc1)OCC | 1 to 25% |

For record Oc1nc(-c2ccccn2)nc2cc(-c3ccncc3)sc12 [drawing 3561] the listed inhibition at 20 µM is 51 to 75%

Just so you know, measured inhibition at 20 µM for CCCN(CC1CC1)S(=O)(=O)Oc1ccc(N(C)S(=O)(=O)c2cccs2)cc1 came out at 25 to 50%
